target: human GIP receptor (hGIPR) (Homo sapiens, UniProt P48546); construct: expressed in transfected cells; assay: GIP receptor assay, method A (CRE-luciferase reporter, BHK cells); format: cell-based; conditions: hGIPR Potency, 1% HSA, EC50, method A, in the presence of 1% HSA
Sequence (P48546 22-466): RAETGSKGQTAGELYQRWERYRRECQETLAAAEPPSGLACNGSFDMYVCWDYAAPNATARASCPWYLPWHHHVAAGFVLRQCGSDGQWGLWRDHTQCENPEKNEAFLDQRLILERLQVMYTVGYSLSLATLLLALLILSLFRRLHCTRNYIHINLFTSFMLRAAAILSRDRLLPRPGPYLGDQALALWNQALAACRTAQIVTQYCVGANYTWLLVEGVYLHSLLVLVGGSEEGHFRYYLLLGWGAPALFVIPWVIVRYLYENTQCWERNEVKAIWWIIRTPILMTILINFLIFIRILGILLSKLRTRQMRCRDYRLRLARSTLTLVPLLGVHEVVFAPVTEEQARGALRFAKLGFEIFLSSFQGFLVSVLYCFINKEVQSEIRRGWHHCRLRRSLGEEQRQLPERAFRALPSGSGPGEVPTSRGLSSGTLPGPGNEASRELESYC
Numbered stars: 1 amine (or outer) side, 2 acyl side, 3 side chain; on linkers, the order of the positions; unused ones are H or OH. Square brackets hold non-standard residues; d marks the D form. Side chains are listed from the residue outwards. * marks the point of attachment. C18 diacid = O=C(O)CCCCCCCCCCCCCCCCC(=O)*; C16 diacid = O=C(O)CCCCCCCCCCCCCCC(=O)*; γGlu = O=C(O)[C@H](CCC(=O)[*:2])N[*:1]; AEEA = NCCOCCOCC(=O)O; Aib = CC(C)(N)C(=O)O
Provide the recorded pEC50 for the entries that follow.
Notebook: values listed as pEC50 are -log10 of the concentration (mol/L).

H[Aib]HGTFTSDYSILLEEQAAREFIEWLLAGGPSSGAGQAPGQAPGASHLSTAQTQRLSAELHRLK([AEEA-AEEA-γGlu-C18 diacid])TLPRTETGSGSP-NH2 [Compound 91] yielded pEC50 of 11.03

pEC50 measured on H[Aib]HGTFTSDYSILLEEQAAREFIEWLLAGGPSRGAPPPSGGGEASELSTAALGRLSAELHK([AEEA-AEEA-γGlu-C18 diacid])LATLPRTETGSGSP-NH2 [Compound 70] = 10.72

pEC50 measured on Y[Aib]EGTFTSDYSILLEEQAAREFIEWLLAGGPSRGEASELSTAALGRLSAELHK([AEEA-AEEA-γGlu-C18 diacid])LATLPRTETGSGSP-NH2 [Compound 67] = 10.43

Summary for this substance, H[Aib]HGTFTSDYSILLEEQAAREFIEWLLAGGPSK([AEEA-AEEA-γGlu-C16 diacid])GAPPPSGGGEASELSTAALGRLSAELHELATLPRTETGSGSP-NH2 [Compound 12] : pEC50 is 10.23

pEC50 for Y[Aib]EGTFTSDYSILLEEQAAREFIEWLLAGGPSSGAGQAPGQAPGASHLSTAQTQRLSAK([AEEA-AEEA-γGlu-C18 diacid])LHRLATLPRTETGSGSP-NH2 [compound 55] is 10.99

// recorded pEC50 for H[Aib]HGTFTSDYSILLEEQAAREFIEWLLAGGPSSGAGQAPGQAPGASHLSTAQTARLSAELHK([AEEA-AEEA-γGlu-C18 diacid])LATLPRTETGSGSP-NH2 [Compound 103] : 10.88

Per the record, Y[Aib]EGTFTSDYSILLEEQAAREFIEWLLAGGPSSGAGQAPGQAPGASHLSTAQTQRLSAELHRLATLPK([AEEA-AEEA-γGlu-C18 diacid])TETGSGSP-NH2 [Compound 57] has pEC50 of 11.23

Query Y[Aib]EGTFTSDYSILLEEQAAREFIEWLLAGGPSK([AEEA-AEEA-γGlu-C18 diacid])GGQEPGQEPGEASHLSTAQTQRLSAELHELATLPRTETGSGSP-NH2 [Compound 39] yields pEC50 of 9.45

Entry H[Aib]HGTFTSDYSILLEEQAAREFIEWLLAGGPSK([AEEA-AEEA-γGlu-C18 diacid])GEASQLSTAALGRLSAELHGLATLPRTETGSGSP-NH2 [Compound 65] ; pEC50 = 9.93

Note to self: pEC50 recorded for H[Aib]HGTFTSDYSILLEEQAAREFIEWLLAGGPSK([AEEA-AEEA-γGlu-C18 diacid])GAPPPSGGGGASELSTAALGRLSAELHRLATLPRTETGSGSP-NH2 [Compound 14] was 9.59

Looking up H[Aib]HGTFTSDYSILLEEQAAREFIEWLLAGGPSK([AEEA-AEEA-γGlu-C16 diacid])GEASQLSTAALGRLSAELHRLADLPRTETGSGSP-NH2 [Compound 62] , I see its pEC50 listed as 10.33
